Ref: ChEMBL document CHEMBL1137023

Recorded ED50, one value per entry.
Test system: Staphylococcus aureus
Test Summary: Antibacterial activity against Staphylococcus aureus was evaluated in infected mice
Assay type: functional

// query For the compound NC(=S)NC[C@H]1CN(c2ccc(N3CCN(c4cccc(Cl)c4)CC3)c(F)c2)C(=O)O1 , give its reported ED50.
// result > 16 mg/kg

// query Provide one value: measured ED50 of COC(=S)NC[C@H]1CN(c2ccc(N3CCN(c4ccccn4)CC3)c(F)c2)C(=O)O1
// result > 16 mg/kg

###

What follows is a collection of MIC values obtained with Streptococcus pyogenes.

A selection of reference data follows.
O=C1O[C@@H](CO[n+]2ccco2)CN1c1ccc(N2CCN(c3ccccc3Cl)CC2)c(F)c1 : > 64 µg/mL
CC(=O)NC[C@H]1CN(c2ccc(N3CCOCC3)c(F)c2)C(=O)O1 : 0.5 µg/mL

// query Recall and state the measured MIC for O=C1O[C@@H](COc2ccccn2)CN1c1ccc(N2CCN(c3ccccc3Cl)CC2)c(F)c1 .
// result > 64 µg/mL

// query Please give measured MIC of the following entry: O=C1O[C@@H](COC2CNCCN2)CN1c1ccc(N2CCN(c3ccccc3Cl)CC2)c(F)c1 (some centres undefined)
// result > 64 µg/mL
